molecular target: recombinant soluble homotrimeric HA of A/northern shoveler/California/HKWF115/07 (H6) (Influenza A virus A/northern shoveler/California/HKWF115/2007(H6N1)); test: trimeric HA microarray, transfection supernatant set 4; details: remark: other sources report otherwise
assay.readout: Trimeric HA Binding: RLU (RLU)
Report the value in RLU with no unit label.

TCN-534 (5249_B02) (antibody, V domains shown) VH: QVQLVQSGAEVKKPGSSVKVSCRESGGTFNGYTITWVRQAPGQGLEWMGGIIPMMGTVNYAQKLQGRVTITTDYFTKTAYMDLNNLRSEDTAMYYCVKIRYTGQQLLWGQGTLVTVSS VL: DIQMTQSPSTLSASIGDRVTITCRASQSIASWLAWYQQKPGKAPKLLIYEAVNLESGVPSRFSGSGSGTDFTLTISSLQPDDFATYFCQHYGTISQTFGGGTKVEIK	21300
TCN-535 (5246_P19) (antibody, V domains shown) VH: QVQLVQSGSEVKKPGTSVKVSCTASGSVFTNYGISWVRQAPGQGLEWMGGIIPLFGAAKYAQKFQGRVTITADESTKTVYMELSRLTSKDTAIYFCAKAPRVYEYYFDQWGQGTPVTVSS VL: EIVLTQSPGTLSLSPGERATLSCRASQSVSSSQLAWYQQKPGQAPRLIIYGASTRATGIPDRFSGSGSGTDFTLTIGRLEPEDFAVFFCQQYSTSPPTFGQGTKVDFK	18100
TCN-536 (5095_N01) (antibody, V domains shown) VH: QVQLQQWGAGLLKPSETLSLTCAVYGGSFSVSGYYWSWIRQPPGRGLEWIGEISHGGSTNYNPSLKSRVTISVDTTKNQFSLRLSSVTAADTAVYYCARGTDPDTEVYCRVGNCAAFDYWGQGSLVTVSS VL: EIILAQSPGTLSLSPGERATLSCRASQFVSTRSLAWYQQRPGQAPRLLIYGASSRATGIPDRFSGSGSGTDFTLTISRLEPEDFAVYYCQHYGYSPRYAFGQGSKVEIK	95

Here is the next item to consider.
Query :: What value of Trimeric HA Binding: RLU has been reported for the following binder? TCN-523 (5248_A17) (antibody, V domains shown) VH: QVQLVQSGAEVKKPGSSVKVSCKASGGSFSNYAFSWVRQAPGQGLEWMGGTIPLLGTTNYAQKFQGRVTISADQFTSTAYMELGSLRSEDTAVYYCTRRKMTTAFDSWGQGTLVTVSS VL: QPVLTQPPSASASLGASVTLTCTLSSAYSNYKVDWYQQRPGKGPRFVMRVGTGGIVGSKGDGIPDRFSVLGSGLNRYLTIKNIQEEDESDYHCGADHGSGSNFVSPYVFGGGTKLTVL
Result :: 25100

Reference for the values: patent US20150086555A1
